# Test system: HCV replicon 1B
# assay_name: Cell-based HCV Replicon Assay B, replicon 1B
# particulars: Hepatitis C virus
pIC50: −log10 of the molar value.
recorded_metric: pIC50

1) COC(=O)NC(C(=O)N1CCC[C@H]1c1ncc(-c2ccc3c(c2)cc2n3C(c3cnc(C4CCC4)s3)Oc3cc(-c4cnc([C@@H]5CCCN5C(=O)[C@@H](NC(=O)OC)C(C)C)[nH]4)cc(F)c3-2)[nH]1)C1C[C@@H](C)O[C@@H](C)C1 (single isomer, unassigned) [Compound 66] :: 11.70
2) COC(=O)N[C@H](C(=O)N1CCC[C@H]1c1ncc(-c2cc(F)c3c(c2)OC(c2cnc(OC)s2)n2c-3cc3cc(-c4cnc([C@@H]5CCCN5C(=O)[C@@H](NC(=O)OC)C(C)C)[nH]4)ccc32)[nH]1)C(C)C (single isomer, unassigned) [Compound 14] :: 11.70
